assay: Saturation solubility in relevant solvents and release media; format: physicochemical; details: methanol, organic solvent or mixture, thermodynamic from solid; MeOH; read-out: GML Saturation Solubility
Measure Name: solubility at 24 h (mg/mL)
Report the figure in mg/mL without appending any unit label.

Query: What measured solubility at 24 h goes with CCCCCCCCCCCC(=O)OCC(O)CO (stereo not shown) [GML, glycerol monolaurate] ?
Result: 278

====

test: Saturation solubility in relevant solvents and release media; type: physicochemical; details: ethanol, organic solvent or mixture, thermodynamic from solid; EtOH; read-out: GML Saturation Solubility
Measure Name: solubility at 24 h

Query: // query solubility at 24 h value for entry CCCCCCCCCCCC(=O)OCC(O)CO (stereo not shown) [GML, glycerol monolaurate]
Result: 271 mg/mL

====

Test: Saturation solubility in relevant solvents and release media
Format: physicochemical
Conditions: water, thermodynamic from solid; read-out: GML Saturation Solubility
Protocol: Approximately 20 mg samples of GML were weighed into microcentrifuge tubes and 100 μL of solvent (n=3) was subsequently added. Samples were vortexed and assessed visually to determine dissolution progress. As dissolution occurred, an additional 20 mg of GML was added until complete saturation was reached. […] The supernatant samples were diluted with MeOH and drug concentration was subsequently analyzed via LC-MS as described above.
Measure Name: solubility at 24 h (µg/mL)
Answer with a number only, understood to be in µg/mL.

Query: If you can, please state the reported solubility at 24 h value of CCCCCCCCCCCC(=O)OCC(O)CO (stereo not shown) [GML, glycerol monolaurate] .
Result: 4480

====

experiment: Saturation solubility in relevant solvents and release media; type: physicochemical; details: acetone, organic solvent or mixture, thermodynamic from solid; read-out: GML Saturation Solubility
Measure Name: solubility at 24 h (mg/mL)
Could you give me the number in mg/mL? Just the number is fine.

Query: # input molecule: CCCCCCCCCCCC(=O)OCC(O)CO (stereo not shown) [GML, glycerol monolaurate] ; wanted: its solubility at 24 h
Result: 255
